The reported numbers originate from paper PMC8126654.

pIC50: −log10 of the molar value.
Please consider the recorded pIC50 for Pim-1 (Homo sapiens) in what follows.
measurement_type: pIC50

P. CN1CCN(c2ccc(-c3cnc4ccc(/C=C5\SC(=O)NC5=O)nn34)cc2C(C)(C)C)CC1
Q. CCCCCN1CCN(c2ccc(-c3cnc4ccc(/C=C5\SC(=O)NC5=O)nn34)cc2F)CC1
Please indicate which has the smaller reported pIC50: P , or Q . Let me know the label of the one you choose.
Q

###

tested_target: FLT3 (Homo sapiens, UniProt P36888)
Sequence (P36888 27-993): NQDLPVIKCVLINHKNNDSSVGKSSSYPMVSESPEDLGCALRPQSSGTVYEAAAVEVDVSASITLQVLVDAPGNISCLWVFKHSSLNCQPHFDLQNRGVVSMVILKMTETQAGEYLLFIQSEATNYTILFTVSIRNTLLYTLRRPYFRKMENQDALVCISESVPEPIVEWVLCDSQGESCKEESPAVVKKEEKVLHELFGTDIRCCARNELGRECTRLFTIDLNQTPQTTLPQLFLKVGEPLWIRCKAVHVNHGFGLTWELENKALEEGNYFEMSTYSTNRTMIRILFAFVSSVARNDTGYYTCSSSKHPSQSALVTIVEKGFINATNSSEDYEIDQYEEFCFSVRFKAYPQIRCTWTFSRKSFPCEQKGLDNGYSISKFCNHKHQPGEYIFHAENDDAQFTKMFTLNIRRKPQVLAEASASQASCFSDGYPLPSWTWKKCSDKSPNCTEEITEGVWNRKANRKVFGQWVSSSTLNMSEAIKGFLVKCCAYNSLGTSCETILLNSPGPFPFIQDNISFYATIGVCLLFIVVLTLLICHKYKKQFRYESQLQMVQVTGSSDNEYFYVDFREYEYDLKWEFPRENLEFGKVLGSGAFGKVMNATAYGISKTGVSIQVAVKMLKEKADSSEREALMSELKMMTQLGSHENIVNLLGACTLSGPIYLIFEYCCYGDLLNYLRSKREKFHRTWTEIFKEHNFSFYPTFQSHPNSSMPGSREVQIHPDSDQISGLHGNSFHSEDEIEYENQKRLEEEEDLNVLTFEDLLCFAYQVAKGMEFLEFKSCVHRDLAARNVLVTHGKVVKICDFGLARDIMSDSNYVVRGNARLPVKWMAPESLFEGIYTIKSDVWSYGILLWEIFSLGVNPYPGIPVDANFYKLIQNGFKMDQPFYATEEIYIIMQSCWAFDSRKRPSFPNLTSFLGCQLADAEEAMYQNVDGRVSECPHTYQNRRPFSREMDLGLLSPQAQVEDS
measurement_type: pIC50
Answer as the number alone; pIC50 is minus log10 of concentration in mol/L.

# pIC50 (compound: CN1CCN(c2ccc(-c3cnc4ccc(/C=C5\SC(=O)NC5=O)nn34)cc2)CC1 ) is 6.41
